The reported numbers originate from paper PMC10329973.

- PROTOCOL_DETAILS: Multiple ascending dose study NP10679-102, plasma pharmacokinetics
- Format: in vivo
- TEST_CONDITIONS: human, iv, 25 mg, T 1/2, MAD, 25 mg IV once daily, day 1
VALUE_TYPE: half-life (h)
Report as a plain number; the unit h is understood.

// lookup half-life for O=C1CCc2cc(OC[C@H](O)CN3CCN(c4ccc(C(F)(F)F)cc4)CC3)ccc2N1
15

* * *

- PROTOCOL_DETAILS: Multiple ascending dose study NP10679-102, plasma pharmacokinetics
- Type: in vivo
- TEST_CONDITIONS: human, iv, 50 mg, Tmax, MAD, 50 mg IV once daily, day 1
VALUE_TYPE: Tmax (min)
Numbers only here, please. The scale is min.

Quick check: Tmax of O=C1CCc2cc(OC[C@H](O)CN3CCN(c4ccc(C(F)(F)F)cc4)CC3)ccc2N1 ?
48

* * *

- PROTOCOL_DETAILS: Single ascending dose study NP10679-101, plasma pharmacokinetics
- Type: in vivo, human
- TEST_CONDITIONS: human, plasma, iv, 200 mg
VALUE_TYPE: AUC(0-t) (ng·h/mL)
Reply with just the number (in ng·h/mL).

Record request: AUC(0-t) value, item O=C1CCc2cc(OC[C@H](O)CN3CCN(c4ccc(C(F)(F)F)cc4)CC3)ccc2N1
19700

* * *

- PROTOCOL_DETAILS: Single ascending dose study NP10679-101, plasma pharmacokinetics
- Type: in vivo, human
- TEST_CONDITIONS: human, plasma, iv, 200 mg
VALUE_TYPE: AUC(0-inf) (µg·h/mL)
Please give a number only; it is taken to be in µg·h/mL.

Which AUC(0-inf) value is on record for O=C1CCc2cc(OC[C@H](O)CN3CCN(c4ccc(C(F)(F)F)cc4)CC3)ccc2N1 [NP10679] ?
20.2

* * *

- PROTOCOL_DETAILS: Multiple ascending dose study NP10679-102, plasma pharmacokinetics
- Format: in vivo
- TEST_CONDITIONS: human, iv, 100 mg, T 1/2, MAD, 100 mg IV once daily, day 2
VALUE_TYPE: half-life (h)
Report the figure in h without appending any unit label.

// half-life lookup, key: O=C1CCc2cc(OC[C@H](O)CN3CCN(c4ccc(C(F)(F)F)cc4)CC3)ccc2N1
22

* * *

- PROTOCOL_DETAILS: Single ascending dose study NP10679-101, plasma pharmacokinetics
- Assay type: in vivo, human
- TEST_CONDITIONS: human, plasma, iv, 50 mg
VALUE_TYPE: AUC(0-t) (ng·h/mL)
Report the figure in ng·h/mL without appending any unit label.

Please look up its AUC(0-t): O=C1CCc2cc(OC[C@H](O)CN3CCN(c4ccc(C(F)(F)F)cc4)CC3)ccc2N1
3980

* * *

- PROTOCOL_DETAILS: Multiple ascending dose study NP10679-102, plasma pharmacokinetics
- Format: in vivo
- TEST_CONDITIONS: human, iv, 25 mg, Tmax, MAD, 25 mg IV once daily, day 1
VALUE_TYPE: Tmax
Include the unit right after the number.

Suppose we examine the molecule O=C1CCc2cc(OC[C@H](O)CN3CCN(c4ccc(C(F)(F)F)cc4)CC3)ccc2N1 [NP10679] ; what Tmax value has been reported?
30 min

* * *

- PROTOCOL_DETAILS: Single ascending dose study NP10679-101, plasma pharmacokinetics
- Type: in vivo, human
- TEST_CONDITIONS: human, plasma, iv, 100 mg, Vd, area, mean, SAD, single IV infusion 100 mg
VALUE_TYPE: Vd
Include the unit right after the number.

What value of Vd has been recorded for this entry: O=C1CCc2cc(OC[C@H](O)CN3CCN(c4ccc(C(F)(F)F)cc4)CC3)ccc2N1 [NP10679]
317 L

* * *

- PROTOCOL_DETAILS: Single ascending dose study NP10679-101, plasma pharmacokinetics
- Assay type: in vivo, human
- TEST_CONDITIONS: human, plasma, iv, 200 mg
VALUE_TYPE: clearance (mL/min)
Use mL/min as the unit, but write only the number.

Tell me the measured clearance of O=C1CCc2cc(OC[C@H](O)CN3CCN(c4ccc(C(F)(F)F)cc4)CC3)ccc2N1 , please.
167

* * *

- PROTOCOL_DETAILS: Multiple ascending dose study NP10679-102, plasma pharmacokinetics
- Format: in vivo
- TEST_CONDITIONS: human, iv, 25 mg, T 1/2, MAD, 25 mg IV once daily, day 5
VALUE_TYPE: half-life (h)
Quick note: give the figure in h, leave out the unit.

// returns reported half-life for input O=C1CCc2cc(OC[C@H](O)CN3CCN(c4ccc(C(F)(F)F)cc4)CC3)ccc2N1
36

* * *

- PROTOCOL_DETAILS: Multiple ascending dose study NP10679-102, plasma pharmacokinetics
- Type: in vivo
- TEST_CONDITIONS: human, iv, 25 mg, AUC 0–24, MAD, 25 mg IV once daily, day 5
VALUE_TYPE: AUC(0-t) (ng·h/mL)
Reply with just the number (in ng·h/mL).

Query (compound): O=C1CCc2cc(OC[C@H](O)CN3CCN(c4ccc(C(F)(F)F)cc4)CC3)ccc2N1 [NP10679] ; field requested: AUC(0-t)
2260

* * *

- PROTOCOL_DETAILS: Multiple ascending dose study NP10679-102, plasma pharmacokinetics
- Format: in vivo
- TEST_CONDITIONS: human, iv, 25 mg, Cmax, MAD, 25 mg IV once daily, day 2
VALUE_TYPE: Cmax (ng/mL)
Field format: number, assumed ng/mL, no unit text.

Find the recorded Cmax belonging to O=C1CCc2cc(OC[C@H](O)CN3CCN(c4ccc(C(F)(F)F)cc4)CC3)ccc2N1 [NP10679] and report it.
211

* * *

- PROTOCOL_DETAILS: Multiple ascending dose study NP10679-102, plasma pharmacokinetics
- Format: in vivo
- TEST_CONDITIONS: human, iv, 50 mg, T 1/2, MAD, 50 mg IV once daily, day 2
VALUE_TYPE: half-life (h)
Provide only the numeric value, understood in h.

What does the data say about its half-life? Entry: O=C1CCc2cc(OC[C@H](O)CN3CCN(c4ccc(C(F)(F)F)cc4)CC3)ccc2N1
18

* * *

- PROTOCOL_DETAILS: Multiple ascending dose study NP10679-102, plasma pharmacokinetics
- Format: in vivo
- TEST_CONDITIONS: human, iv, 100 mg, Tmax, MAD, 100 mg IV once daily, day 5
VALUE_TYPE: Tmax

I would be grateful if you could share the reported Tmax for O=C1CCc2cc(OC[C@H](O)CN3CCN(c4ccc(C(F)(F)F)cc4)CC3)ccc2N1 [NP10679] .
30 min

* * *

- PROTOCOL_DETAILS: Multiple ascending dose study NP10679-102, plasma pharmacokinetics
- Assay type: in vivo
- TEST_CONDITIONS: human, iv, 100 mg, Cmax, MAD, 100 mg IV once daily, day 2
VALUE_TYPE: Cmax (ng/mL)
Reply numerically in ng/mL, unit not repeated.

What does the data say about its Cmax? Entry: O=C1CCc2cc(OC[C@H](O)CN3CCN(c4ccc(C(F)(F)F)cc4)CC3)ccc2N1
570

* * *

- PROTOCOL_DETAILS: Multiple ascending dose study NP10679-102, plasma pharmacokinetics
- Assay type: in vivo
- TEST_CONDITIONS: human, iv, 100 mg, T 1/2, MAD, 100 mg IV once daily, day 3
VALUE_TYPE: half-life
Answer as a quantity: numeral, then unit.

// lookup half-life for O=C1CCc2cc(OC[C@H](O)CN3CCN(c4ccc(C(F)(F)F)cc4)CC3)ccc2N1 [NP10679]
1320 min

* * *

- PROTOCOL_DETAILS: Multiple ascending dose study NP10679-102, plasma pharmacokinetics
- Type: in vivo
- TEST_CONDITIONS: human, iv, 100 mg, Tmax, MAD, 100 mg IV once daily, day 4
VALUE_TYPE: Tmax (min)
Please reply with the bare figure in min and do not write the unit itself.

# query: Tmax of entry O=C1CCc2cc(OC[C@H](O)CN3CCN(c4ccc(C(F)(F)F)cc4)CC3)ccc2N1 [NP10679]
36

* * *

- PROTOCOL_DETAILS: Multiple ascending dose study NP10679-102, plasma pharmacokinetics
- Format: in vivo
- TEST_CONDITIONS: human, iv, 50 mg, Tmax, MAD, 50 mg IV once daily, day 4
VALUE_TYPE: Tmax (min)
Your answer is read as min, so omit the unit and give the number.

Form field: reported Tmax of O=C1CCc2cc(OC[C@H](O)CN3CCN(c4ccc(C(F)(F)F)cc4)CC3)ccc2N1
48

* * *

- PROTOCOL_DETAILS: Multiple ascending dose study NP10679-102, plasma pharmacokinetics
- Type: in vivo
- TEST_CONDITIONS: human, iv, 25 mg, AUC 0–24, MAD, 25 mg IV once daily, day 1
VALUE_TYPE: AUC(0-t) (ng·h/mL)
Express it in ng·h/mL; write the number only.

State the recorded AUC(0-t) for this entry: O=C1CCc2cc(OC[C@H](O)CN3CCN(c4ccc(C(F)(F)F)cc4)CC3)ccc2N1
1470
